Reference for the values: PubChem BioAssay (EPA / NIEHS)

experiment: CCTE_Shafer_MEA_acute_per_network_burst_spike_number_std: CCTE's Neural Acute Assay for Standard Deviation of Number of Spikes in a Network Burst, Shafer Lab (AID 2284020);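 also: fitted for decrease in spike-number SD versus DMSO so actives lower it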
The source made the active and inactive calls. The calls were made as follows: active = hit-call score of the fitted dose curve at least 0.9, where 1 is the maximum; inactive = score below 0.9.
# output must be one of label 1 (active), label 0 (inactive)

>>> qualitative_label("NC(=Nc1ccccc1)Nc1ccccc1")
"label 0"
>>> qualitative_label("COc1ccc(OC(F)(F)F)cc1CN[C@H]1CCCN[C@H]1c1ccccc1")
"label 1"
>>> qualitative_label("COC(=O)[C@H]1[C@H]2C[C@@H]3c4[nH]c5cc(OC)ccc5c4CCN3C[C@H]2C[C@@H](OC(=O)c2cc(OC)c(OC)c(OC)c2)[C@@H]1OC")
"label 1"

We now examine a further compound.
Just curious, what result did CN(C)CCCN1c2ccccc2Sc2ccc(Cl)cc21 get here? label 0

----------
Assay: APR_HepG2_CellCycleArrest_72hr: Apredica 72-hour HepG2 Assay for Cell Cycle Arrest (AID 2282914)
Details: high-content imaging, actives raise or lower the signal
Method: APR_HepG2_72hr is a cell-based, multiplexed-readout assay that uses HepG2, a human liver cell line, with measurements taken at 72 hours after chemical dosing in a 384-well plate.APR_HepG2_CellCycleArrest_72hr is one of 10 assay component(s) measured or calculated from the APR_HepG2_72hr assay. […] This assay endpoint, APR_HepG2_CellCycleArrest_72hr, was analyzed with bidirectional fitting relative to DMSO as the negative control and baseline of activity. […]
Calls of active or inactive are those of the source. Rule for the calls: active = hit-call score of the fitted dose curve at least 0.9, where 1 is the maximum; inactive = score below 0.9.
Respond only with the outcome that fits, drawn from active, inactive

Check out these entries, answers already filled in.
>>> qualitative_label("CCCCCCCCCC[N+](C)(C)[O-]")
"inactive"
>>> qualitative_label("CN(C)C(=O)NC1(c2ccccc2)CCN(CCC[C@]2(c3ccc(Cl)c(Cl)c3)CCCN(C(=O)c3ccccc3)C2)CC1")
"inactive"
>>> qualitative_label("O=C(O)CN(CC(=O)O)CC(=O)O")
"inactive"

Hello, I am checking results. What call was entered for O=C1NC(=O)C(c2ccccc2)(c2ccccc2)N1 ? inactive

Record lookup: outcome of this test for CC(=O)S[C@H](C(=O)N[C@H]1Cc2ccccc2[C@H]2CCC[C@@H](C(=O)O)N2C1=O)C(C)C ? inactive

Hi, sorry to bother you, what did the test record for Cc1ccc(C(C)(C)C)c(O)c1 ? active

GET /call?item= Cc1cc(SC2=C(O)C[C@@](CCc3ccc(N)cc3)(C(C)C)OC2=O)c(C(C)(C)C)cc1CO returns the recorded outcome of this test. inactive

Recorded call for C/C=C/C=C/C(=O)O ? active

Called result for C#CC(O)C(CC)CCCC (configuration not stated) inactive

Recorded test outcome, item CCc1nc(N)nc(N)c1-c1ccc(Cl)cc1 active

Tell me the recorded outcome of this test for Cc1ccc(-c2cc(C(F)(F)F)nn2-c2ccc(S(N)(=O)=O)cc2)cc1 . active

----------
read-out: Ezrin (EZR), EZR (gene 7430); experiment: LTEA_HepaRG_EZR: Life Technologies and Expression Analysis (LTEA) Assay for Ezrin (EZR) using HepaRG (AID 2283491); settings: mRNA level, 48 h; actives raise or lower the signal
Activity calls are given as the source filed them. The calls were made as follows: active = hit-call score of the fitted dose curve at least 0.9, where 1 is the maximum; inactive = score below 0.9.
Use one of these outcomes when replying: true = active, false = inactive

>>> qualitative_label("O=C(O)CN(CC(=O)O)CC(=O)O")
"false"
>>> qualitative_label("Cc1cc(SC2=C(O)C[C@@](CCc3ccc(N)cc3)(C(C)C)OC2=O)c(C(C)(C)C)cc1CO")
"false"
>>> qualitative_label("CCCCCCCCCCCCCCCCO")
"true"
>>> qualitative_label("NCCOCCOCCN")
"false"
>>> qualitative_label("O=C(NS(=O)(=O)/C=C/c1cccs1)c1ccc(F)cc1Br")
"false"

What was the test verdict on CC(=O)[C@@]1(O)CC[C@H]2[C@@H]3CCC4=CC(=O)CC[C@]4(C)[C@H]3CC[C@@]21C ? false

Please state the recorded outcome for this molecule: Cc1c(C)c2c(c(C)c1O)CCC(C)(COc1ccc(CC3SC(=O)NC3=O)cc1)O2 (stereo not given) false

# lookup: test call for COc1ccc(C(=O)Nc2nc3ccccc3c(NCc3ccccc3)c2C#N)cc1 false

Hi, sorry to bother you, what did the test record for S=c1[nH]c2ccccc2s1 ? false

Recorded call for CC1(C)C(=O)NC(=O)N1CO ? false

Please state the recorded outcome for this molecule: Nc1nc(Cl)nc2c1ncn2[C@H]1C[C@H](O)[C@@H](CO)O1 false

----------
molecular target: Glutamate receptor ionotropic, kainate 1 (Rattus norvegicus) (UniProt P22756); assay: NVS_IC_rKAR: NovaScreen (NVS) Ion Channel Assay for rat Kainic Acid Receptors (KAR) (AID 2283334)
Sequence (P22756 whole entry, looked up): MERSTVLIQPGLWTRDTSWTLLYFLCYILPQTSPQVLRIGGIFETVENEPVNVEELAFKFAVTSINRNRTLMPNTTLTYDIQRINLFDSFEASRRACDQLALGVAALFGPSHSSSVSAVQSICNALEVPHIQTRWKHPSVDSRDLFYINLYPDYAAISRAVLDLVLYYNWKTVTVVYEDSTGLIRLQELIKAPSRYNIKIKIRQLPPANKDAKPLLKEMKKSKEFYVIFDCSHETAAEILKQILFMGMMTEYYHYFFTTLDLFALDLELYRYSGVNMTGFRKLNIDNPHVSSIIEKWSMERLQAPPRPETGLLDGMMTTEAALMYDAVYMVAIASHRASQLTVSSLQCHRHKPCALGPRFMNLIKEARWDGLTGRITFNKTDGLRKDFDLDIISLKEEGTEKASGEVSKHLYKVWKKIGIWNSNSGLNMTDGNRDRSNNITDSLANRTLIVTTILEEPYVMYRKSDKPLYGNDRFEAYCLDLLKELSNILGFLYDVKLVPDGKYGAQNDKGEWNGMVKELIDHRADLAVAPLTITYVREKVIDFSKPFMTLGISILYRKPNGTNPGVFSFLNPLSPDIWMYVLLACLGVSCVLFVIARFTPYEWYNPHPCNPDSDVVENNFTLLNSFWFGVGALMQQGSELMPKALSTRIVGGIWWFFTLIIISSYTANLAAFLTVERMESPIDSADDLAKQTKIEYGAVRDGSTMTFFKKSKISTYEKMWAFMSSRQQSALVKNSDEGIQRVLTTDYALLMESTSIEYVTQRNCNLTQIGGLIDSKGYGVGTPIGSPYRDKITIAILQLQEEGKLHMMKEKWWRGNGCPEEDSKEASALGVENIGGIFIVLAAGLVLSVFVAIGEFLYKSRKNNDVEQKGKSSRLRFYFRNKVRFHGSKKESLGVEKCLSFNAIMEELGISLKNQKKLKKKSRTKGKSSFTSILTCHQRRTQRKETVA
Results filed as inconclusive are left out. Calls of active or inactive are those of the source. How the source made its calls: active means hit-call score of the fitted dose curve at least 0.9, where 1 is the maximum; inactive means score below 0.9.
Endpoint Label: outcome

>>> value_reported("CC(C)COC(=O)CCCCC(=O)OCC(C)C")
"inactive"
>>> value_reported("O=C(Oc1ccccc1)c1cccc(C(=O)Oc2ccccc2)c1")
"inactive"
>>> value_reported("COC(=O)CCC(=O)OC")
"inactive"
>>> value_reported("CCC(C)N(C)C(=O)c1cc2ccccc2c(-c2ccccc2Cl)n1 (centres undefined)")
"inactive"

----------
Read-out: Intercellular Adhesion Molecule 1 (ICAM1), ICAM1 (gene 3383)
Assay: BSK_3C_ICAM1: BioMAP Diversity Plus: 3C Assay for Intercellular Adhesion Molecule 1 (ICAM1) Biomarker Activity (AID 2283003)
Conditions: primary human endothelial cells (HUVEC); actives raise or lower the signal
Description: BSK_3C is a cell-based, multiplexed-readout assay that uses umbilical vein endothelium, a human vascular primary cell, with measurements taken at 24 hours after chemical dosing in a 96-well plate.BSK_3C_ICAM1 is an assay component measured in the BSK_3C assay. It measures ICAM-1 antibody related to regulation of gene expression using ELISA technology.Data from the assay component BSK_3C_ICAM1 was analyzed into 1 assay endpoint. […]
The source made the active and inactive calls. The calls were made as follows: active = hit-call score of the fitted dose curve at least 0.9, where 1 is the maximum; inactive = score below 0.9.
Respond only with the outcome that fits, drawn from active, inactive

Take a look at these entries with their results.
>>> qualitative_label("Cc1cc(Cc2ccc(N)c(C)c2)ccc1N")
"inactive"
>>> qualitative_label("CN(C)CCCN(C)CCCN(C)C")
"inactive"
>>> qualitative_label("O=C1c2c(O)cccc2Cc2cccc(O)c21")
"inactive"
>>> qualitative_label("CCCCCCCC(=O)OC")
"inactive"

Hello, I am checking results. What call was entered for O=C(Oc1ccccc1)c1cccc(C(=O)Oc2ccccc2)c1 ? inactive

Any idea what this test logged for CCCCCCCCCCCCCCOS(=O)(=O)O ? inactive

Entry CCc1cc(C2=C(C(=O)O)N(c3ccccc3C(F)(F)F)S(=O)(=O)c3ccccc32)cc2c1OCO2 : call = ? inactive

----------
read-out: Vascular cell adhesion molecule 1 (VCAM1), VCAM1 (gene 7412); assay: BSK_4H_VCAM1: BioMAP Diversity Plus: 4H Assay for Vascular cell adhesion molecule 1 (VCAM1) Biomarker Activity (AID 2283033); conditions: primary human endothelial cells (HUVEC); actives raise or lower the signal;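 also: cell-surface VCAM-1 protein measured by ELISA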
Active and inactive are the calls of the source. Rule for the calls: active = hit-call score of the fitted dose curve at least 0.9, where 1 is the maximum; inactive = score below 0.9.
Form entry, call: pick from 1 = active, 0 = inactive

Example entries and their recorded answers appear below.
>>> qualitative_label("CC(=O)OC1CC(C)OC(C)O1 (stereo not drawn)")
0
>>> qualitative_label("O=NO")
0
>>> qualitative_label("COc1ccc(OC(F)(F)F)cc1CN[C@H]1CCCN[C@H]1c1ccccc1")
0
>>> qualitative_label("CCCCOC(=O)CCCCC(=O)OCCCC")
0
>>> qualitative_label("CC(C)c1cccc(C(C)C)c1NC(=O)NS(=O)(=O)c1cc(C(C)(C)O)co1")
0

Hey, what did the test say about C=CCc1ccc(OC)c(OC)c1 ? 0

----------
read-out: Interleukin 6 (IL6), IL6 (gene 3569); test: LTEA_HepaRG_IL6: Life Technologies and Expression Analysis (LTEA) Assay for Interleukin 6 (IL6) using HepaRG (AID 2283509); settings: mRNA level, 48 h; actives raise or lower the signal
The source made the active and inactive calls. Rule for the calls: active = hit-call score of the fitted dose curve at least 0.9, where 1 is the maximum; inactive = score below 0.9.
Endpoint Label: AC50

Example compounds with recorded AC50:
>>> value_reported("CC(=O)CC(c1ccccc1)c1c(O)c2ccccc2oc1=O (stereo unspecified)")
"inactive"
>>> value_reported("CC1=C(C)S(=O)(=O)CCS1(=O)=O")
"inactive"
>>> value_reported("Cc1cc(SC2=C(O)C[C@@](CCc3ccc(N)cc3)(C(C)C)OC2=O)c(C(C)(C)C)cc1CO")
"inactive"
>>> value_reported("CSc1ccc(Oc2ccc(S(N)(=O)=O)cc2CN(C)C)cc1C")
"88.2 µM (active)"
>>> value_reported("O=C1O[C@H]([C@H](O)CO)C(O)=C1O")
"inactive"

Now, please, on to the next compound.
# get_value(readout='AC50', item= CCCCC(CC)COC(=O)CCCCCCCC(=O)OCC(CC)CCCC (stereo unspecified) ) inactive

----------
biological target: human Adrenergic, Beta 3 Receptor (Adrb3), ADRB3 (gene 155) (UniProt P13945); assay: NVS_GPCR_hAdrb3: NovaScreen (NVS) G Protein-Coupled Receptor Assay for human Adrenergic, Beta 3 Receptor (Adrb3) (AID 2283262)
Sequence (P13945 whole entry, looked up): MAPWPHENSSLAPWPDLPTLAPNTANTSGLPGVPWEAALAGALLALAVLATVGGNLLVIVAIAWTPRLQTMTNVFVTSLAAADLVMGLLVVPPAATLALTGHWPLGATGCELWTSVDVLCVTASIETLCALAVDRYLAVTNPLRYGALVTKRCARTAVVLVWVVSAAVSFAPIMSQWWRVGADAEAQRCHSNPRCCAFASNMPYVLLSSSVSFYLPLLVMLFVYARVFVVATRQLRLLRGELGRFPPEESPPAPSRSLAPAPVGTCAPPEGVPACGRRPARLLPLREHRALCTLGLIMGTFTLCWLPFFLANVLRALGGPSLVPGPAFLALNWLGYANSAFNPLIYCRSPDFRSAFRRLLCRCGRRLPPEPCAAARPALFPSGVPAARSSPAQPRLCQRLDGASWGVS
Results filed as inconclusive are left out. Calls of active or inactive are those of the source. Rule for the calls: active = hit-call score of the fitted dose curve at least 0.9, where 1 is the maximum; inconclusive = response in the unintended direction; inactive = score below 0.9.
Give one outcome, nothing more. List: active, inactive

>>> qualitative_label("CSc1ccc(Oc2ccc(S(N)(=O)=O)cc2CN(C)C)cc1C")
"inactive"

Tell me the assay call for CCN(CC)CCOc1ccc(C(=C(Cl)c2ccccc2)c2ccccc2)cc1 please. inactive

Fill in: this test's call for CN(C)CCCN1c2ccccc2Sc2ccc(Cl)cc21 is ___ active

How did this test come out for CN(C)C(=O)NC1(c2ccccc2)CCN(CCC[C@]2(c3ccc(Cl)c(Cl)c3)CCCN(C(=O)c3ccccc3)C2)CC1 ? inactive

Test call, this compound: COc1ccc(OC(F)(F)F)cc1CN[C@H]1CCCN[C@H]1c1ccccc1 active

# lookup: test call for Cn1cnc2c1c(=O)[nH]c(=O)n2C inactive
